These entries and their values trace back to ChEMBL document CHEMBL2331169.

- METHOD DESCRIPTION: Metabolic stability in human liver microsomes assessed as compound remaining at 10 uM measured at 60 mins by LC-MS/MS analysis relative to control
- Type: ADME, Microsome
- CONDITIONS: read-out: Stability
Output yes for records whose remaining at 1 h, 10 µM is lower than 80%, no for records at or above 80%.

### Prompt Confirm or reject: remaining at 1 h, 10 µM of C#Cc1ccc2c(c1)C(c1ccccc1F)=NCc1c(C(=O)OCC)ncn1-2 lies strictly below 80%
### Response yes

### Prompt Please do the same for C#Cc1ccc2c(c1)C(c1ccccc1)=NCc1c(C(=O)O)ncn1-2 as well.
### Response no

### Prompt Please do the same for C#Cc1ccc2c(c1)C(c1ccccc1)=NCc1c(-c3nc(C(C)C)no3)ncn1-2 as well.
### Response no

### Prompt Please do the same for C#Cc1ccc2c(c1)C(c1ccccn1)=NCc1c(C(=O)O)ncn1-2 as well.
### Response no

### Prompt Please do the same for C#Cc1ccc2c(c1)C(c1ccccc1)=NCc1c(C(=O)NC)ncn1-2 as well.
### Response no

### Prompt Please do the same for C#Cc1ccc2c(c1)C(c1ccccc1F)=NCc1c(C(=O)NC)ncn1-2 as well.
### Response no

### Prompt Please do the same for C#Cc1ccc2c(c1)C(c1ccccc1)=NCc1c(C(=O)OCC)ncn1-2 as well.
### Response yes

### Prompt Please do the same for C#Cc1ccc2c(c1)C(c1ccccn1)=NCc1c(C(=O)NC)ncn1-2 as well.
### Response no

### Prompt Please do the same for C#Cc1ccc2c(c1)C(c1ccccn1)=NCc1c(-c3nc(C(C)C)no3)ncn1-2 as well.
### Response no

### Prompt Please do the same for C#Cc1ccc2c(c1)C(c1ccccn1)=NCc1c(C(=O)OCC)ncn1-2 as well.
### Response yes

---

- METHOD DESCRIPTION: Metabolic stability in human liver microsomes assessed as compound remaining at 1 uM measured at 60 mins by LC-MS/MS analysis relative to control
- Format: ADME, Microsome
- CONDITIONS: liver microsomes, read-out: Stability
Output true (1) for records whose remaining at 1 h, 1 µM is lower than 90%, false (0) for records at or above 90%.

### Prompt Confirm or reject: remaining at 1 h, 1 µM of C#Cc1ccc2c(c1)C(c1ccccn1)=NCc1c(C(=O)O)ncn1-2 lies strictly below 90%
### Response false (0)

### Prompt Please do the same for C#Cc1ccc2c(c1)C(c1ccccc1)=NCc1c(C(=O)O)ncn1-2 as well.
### Response false (0)

### Prompt Please do the same for C#Cc1ccc2c(c1)C(c1ccccc1)=NCc1c(C(=O)OCC)ncn1-2 as well.
### Response true (1)

### Prompt Please do the same for C#Cc1ccc2c(c1)C(c1ccccc1)=NCc1c(C(=O)NC)ncn1-2 as well.
### Response true (1)

### Prompt Please do the same for C#Cc1ccc2c(c1)C(c1ccccc1F)=NCc1c(C(=O)OCC)ncn1-2 as well.
### Response true (1)

### Prompt Please do the same for C#Cc1ccc2c(c1)C(c1ccccn1)=NCc1c(C(=O)OCC)ncn1-2 as well.
### Response true (1)

---

- SYSTEM: GABA A receptor alpha-2/beta-2/gamma-2 (Rattus norvegicus) (UniProt P18508+P23576+P63138)
- METHOD DESCRIPTION: Agonist activity at rat GABAA alpha2beta3gamma2 receptor expressed in Xenopus oocytes assessed as stimulation of GABA-induced chloride current at 100 nM incubated 30 secs prior to GABA induction measured after 15 mins by two-electrode voltage clamp assay relative to control
- Format: cell-based
- CONDITIONS: Oocyte
READOUT LABEL: Activity (%)
Your answer should be a plain number; it is taken to be in %.

### Prompt Requested read-out Activity, target or system GABA A receptor alpha-2/beta-2/gamma-2 (Rattus norvegicus) (UniProt P18508+P23576+P63138), entry C#Cc1ccc2c(c1)C(c1ccccc1F)=NCc1c(C(=O)NC)ncn1-2
### Response 241

### Prompt Please do the same for C#Cc1ccc2c(c1)C(c1ccccc1)=NCc1c(-c3nc(C(C)C)no3)ncn1-2 as well.
### Response 160

### Prompt Please do the same for C#Cc1ccc2c(c1)C(c1ccccc1F)=NCc1c(-c3nc(C(C)C)no3)ncn1-2 as well.
### Response 154

### Prompt Please do the same for C#Cc1ccc2c(c1)C(c1ccccc1)=NCc1c(C(=O)NC)ncn1-2 as well.
### Response 211

### Prompt Please do the same for C#Cc1ccc2c(c1)C(c1ccccn1)=NCc1c(-c3nc(C(C)C)no3)ncn1-2 as well.
### Response 139

### Prompt Please do the same for C#Cc1ccc2c(c1)C(c1ccccn1)=NCc1c(C(=O)NC)ncn1-2 as well.
### Response 140

---

Assignment: determine reported remaining at 0.5 h, 1 µM for the given molecules.
- METHOD DESCRIPTION: Metabolic stability in human liver microsomes assessed as compound remaining at 1 uM measured at 30 mins by LC-MS/MS analysis relative to control
- Type: ADME, Microsome
- CONDITIONS: liver microsomes, read-out: Stability

### Prompt Please report the recorded remaining at 0.5 h, 1 µM for C#Cc1ccc2c(c1)C(c1ccccc1)=NCc1c(C(=O)OCC)ncn1-2 .
### Response 11.2%

### Prompt Please do the same for C#Cc1ccc2c(c1)C(c1ccccc1)=NCc1c(C(=O)O)ncn1-2 as well.
### Response 110%

### Prompt Please do the same for C#Cc1ccc2c(c1)C(c1ccccc1)=NCc1c(-c3nc(C(C)C)no3)ncn1-2 as well.
### Response 110%

### Prompt Please do the same for C#Cc1ccc2c(c1)C(c1ccccc1F)=NCc1c(C(=O)NC)ncn1-2 as well.
### Response 95.9%

### Prompt Please do the same for C#Cc1ccc2c(c1)C(c1ccccc1)=NCc1c(C(=O)NC)ncn1-2 as well.
### Response 37.5%

### Prompt Please do the same for C#Cc1ccc2c(c1)C(c1ccccn1)=NCc1c(C(=O)OCC)ncn1-2 as well.
### Response 95.6%

### Prompt Please do the same for C#Cc1ccc2c(c1)C(c1ccccn1)=NCc1c(C(=O)O)ncn1-2 as well.
### Response 105%

### Prompt Please do the same for C#Cc1ccc2c(c1)C(c1ccccc1F)=NCc1c(C(=O)OCC)ncn1-2 as well.
### Response 2.2%

### Prompt Please do the same for C#Cc1ccc2c(c1)C(c1ccccn1)=NCc1c(-c3nc(C(C)C)no3)ncn1-2 as well.
### Response 98.7%

---

- SYSTEM: GABA A receptor alpha-5/beta-3/gamma-2 (Rattus norvegicus) (UniProt P18508+P19969+P63079)
- METHOD DESCRIPTION: Agonist activity at rat GABAA alpha5beta3gamma2 receptor expressed in Xenopus oocytes assessed as stimulation of GABA-induced chloride current at 100 nM incubated 30 secs prior to GABA induction measured after 15 mins by two-electrode voltage clamp assay relative to control
- Assay type: cell-based
- CONDITIONS: Oocyte
READOUT LABEL: Activity (%)
Your answer should be a plain number; it is taken to be in %.

### Prompt Please report the recorded Activity for C#Cc1ccc2c(c1)C(c1ccccc1)=NCc1c(-c3nc(C(C)C)no3)ncn1-2 .
### Response 175

### Prompt Please do the same for C#Cc1ccc2c(c1)C(c1ccccc1F)=NCc1c(-c3nc(C(C)C)no3)ncn1-2 as well.
### Response 239

### Prompt Please do the same for C#Cc1ccc2c(c1)C(c1ccccn1)=NCc1c(-c3nc(C(C)C)no3)ncn1-2 as well.
### Response 130

### Prompt Please do the same for C#Cc1ccc2c(c1)C(c1ccccc1)=NCc1c(C(=O)NC)ncn1-2 as well.
### Response 257

### Prompt Please do the same for C#Cc1ccc2c(c1)C(c1ccccn1)=NCc1c(C(=O)NC)ncn1-2 as well.
### Response 122

### Prompt Please do the same for C#Cc1ccc2c(c1)C(c1ccccc1F)=NCc1c(C(=O)NC)ncn1-2 as well.
### Response 326

---

- SYSTEM: GABA A receptor alpha-2/beta-2/gamma-2 (Rattus norvegicus) (UniProt P18508+P23576+P63138)
- METHOD DESCRIPTION: Agonist activity at rat GABAA alpha2beta3gamma2 receptor expressed in Xenopus oocytes assessed as stimulation of GABA-induced chloride current at 1 uM incubated 30 secs prior to GABA induction measured after 15 mins by two-electrode voltage clamp assay relative to control
- Format: cell-based
- CONDITIONS: Oocyte
READOUT LABEL: Activity (%)
Your answer should be a plain number; it is taken to be in %.

### Prompt Please report the recorded Activity for C#Cc1ccc2c(c1)C(c1ccccc1)=NCc1c(-c3nc(C(C)C)no3)ncn1-2 .
### Response 281

### Prompt Please do the same for C#Cc1ccc2c(c1)C(c1ccccn1)=NCc1c(-c3nc(C(C)C)no3)ncn1-2 as well.
### Response 236

### Prompt Please do the same for C#Cc1ccc2c(c1)C(c1ccccn1)=NCc1c(C(=O)NC)ncn1-2 as well.
### Response 226

### Prompt Please do the same for C#Cc1ccc2c(c1)C(c1ccccc1)=NCc1c(C(=O)NC)ncn1-2 as well.
### Response 287

### Prompt Please do the same for C#Cc1ccc2c(c1)C(c1ccccc1F)=NCc1c(-c3nc(C(C)C)no3)ncn1-2 as well.
### Response 225

### Prompt Please do the same for C#Cc1ccc2c(c1)C(c1ccccc1F)=NCc1c(C(=O)NC)ncn1-2 as well.
### Response 287
